Origin of values: patent US20220119354A1

system: pigweed (Amaranthus retroflexus); assay: Test A preemergence, pigweed; format: in vivo; settings: 125 g ai/ha, 0 to 100 scale, 0 is no effect, 100 is complete control
endpoint.label: Pigweed plant response rating

> print(dat)
                                   molecule                 endpoint.label  result
1  C[C@@H](Nc1ncc(C(F)(F)F)c(N)n1)c1cc2cccc(F)c2o1  Pigweed plant response rating     100
2  Cc1cc(OCC(C)Nc2ncc(C(F)(F)F)c(N)n2)ccc1F (centres unmarked)  Pigweed plant response rating      50
3  C[C@H](Nc1ncc(C(F)(F)F)c(N)n1)c1cc2cccc(F)c2o1  Pigweed plant response rating       0
4  CC(Nc1ncc(C(F)(F)F)c(N)n1)c1cc2c(Cl)cccc2o1 (centres unmarked)  Pigweed plant response rating     100
5  CC(Nc1ncc(C(F)(F)F)c(N)n1)c1cc2ccc(F)c(F)c2s1 (centres unmarked)  Pigweed plant response rating     100

---

tested on: ragweed (common ragweed, Ambrosia elatior); assay: Test A postemergence, ragweed; format: in vivo; settings: 125 g ai/ha, 0 to 100 scale, 0 no effect, 100 complete control
Friendly reminder: Plant response rating, Ragweed below 50 is T, at or above is F.

> print(dat)
                                   compound  label.value
1  C[C@H](Nc1ncc(C(F)(F)F)c(N)n1)c1cc2ccc(F)cc2s1 [Compound 47]            T
2  CC(=O)c1cnc(NC(C)c2cc3ccccc3s2)nc1N (stereo not drawn) [Compound 57]            T
3  Cc1ccc2c([C@H](Nc3ncc(C(F)(F)F)c(N)n3)C3CC3)coc2c1 [Compound 90]            T
4  C[C@@H](Nc1nc(N)c(C(F)(F)F)c(C(F)(F)F)n1)c1cc2ccccc2s1 [Compound 59]            T
5  Cc1cccc2sc([C@@H](C)Nc3ncc(C(F)(F)F)c(N)n3)cc12 [Compound 115]            F
6  CC(F)c1nc(N[C@H](C)c2cc3ccccc3o2)nc(N)c1C(F)(F)F (stereo partly drawn) [Compound 112]            T
7  CC(Nc1ncc(C(F)(F)F)c(N)n1)c1coc2cc(F)ccc12 (racemic) [Compound 51]            F
8  CC(Nc1ncc(C(F)(F)F)c(N)n1)c1cc2ccc(F)c(F)c2s1 (stereo not drawn) [Compound 86]            T

---

system: foxtail, giant (Setaria faberii); assay: Test A postemergence, giant foxtail; assay type: in vivo; settings: 125 g ai/ha, 0 to 100 scale, 0 no effect, 100 complete control
Below, each entry is listed with its recorded Plant response rating, Foxtail, Giant.
endpoint.label: Plant response rating, Foxtail, Giant

> print(dat)
                                   compound  result
1  C[C@H](Nc1ncc(C(F)(F)F)c(N)n1)c1cc2ccccc2n1C       0
2  CC(Nc1ncc(C(F)(F)F)c(N)n1)c1coc2cc(Cl)ccc12 (racemic)       0
3  Nc1nc(NC(c2coc3ccccc23)C2CC2)ncc1C(F)(F)F (racemic)      50
4  C[C@@H](Nc1nc(N)c(C(F)(F)F)c(C(F)F)n1)c1cc2ccccc2s1      20

---

tested on: ragweed (common ragweed, Ambrosia elatior); assay: Test A postemergence, ragweed; type: in vivo; details: 125 g ai/ha, 0 to 100 scale, 0 no effect, 100 complete control
endpoint.label: Plant response rating, Ragweed

> print(dat)
                                    compound                  endpoint.label  result
 1  CC(Nc1ncc(C(F)(F)F)c(N)n1)c1cc2c(Br)cccc2o1 (centres unmarked)  Plant response rating, Ragweed      30
 2  CC[C@@H](Nc1ncc(C(F)(F)F)c(N)n1)c1cc2ccc(F)cc2o1  Plant response rating, Ragweed      30
 3  C[C@H](Nc1ncc(C(F)(F)F)c(N)n1)c1cc2c(F)cccc2o1  Plant response rating, Ragweed      20
 4  C[C@@H](Nc1ncc(C(F)(F)F)c(N)n1)c1cc2c(Cl)cccc2s1  Plant response rating, Ragweed      60
 5  CC(Nc1nc(N)c(C(F)(F)F)c(C(F)(F)F)n1)c1cc2ccccc2o1 (racemic)  Plant response rating, Ragweed       0
 6  C[C@@H](Nc1ncc(C(F)(F)F)c(N)n1)c1coc2cc(Cl)ccc12  Plant response rating, Ragweed      50
 7  Nc1nc(N[C@@H](c2coc3ccccc23)C2CC2)ncc1C(F)(F)F  Plant response rating, Ragweed      80
 8  CC[C@H](Nc1ncc(C(F)(F)F)c(N)n1)c1cc2ccccc2s1  Plant response rating, Ragweed       0
 9  CC(Nc1nc(N)c(C(F)(F)F)c(C(F)(F)F)n1)c1coc2ccccc12 (centres unmarked)  Plant response rating, Ragweed       0
10  C[C@@H](Nc1ncc([S+](C)[O-])c(N)n1)c1cc2ccccc2s1 (some centres unmarked)  Plant response rating, Ragweed      30
11  C[C@@H](Nc1ncc(C(F)(F)F)c(N)n1)c1cc2ccccc2[s+]1[O-] (some centres unmarked)  Plant response rating, Ragweed      40
12  CC(Nc1ncc(C(F)(F)F)c(N)n1)c1coc2cccc(F)c12 (racemic)  Plant response rating, Ragweed      20
13  CC[C@@H](Nc1ncc(C(F)(F)F)c(N)n1)c1cc2ccc(F)cc2s1  Plant response rating, Ragweed      20
14  CC[C@H](Nc1ncc(C(F)(F)F)c(N)n1)c1cc2ccc(F)cc2o1  Plant response rating, Ragweed       0
15  Nc1nc(N[C@H](c2coc3ccccc23)C2CC2)ncc1C(F)(F)F  Plant response rating, Ragweed       0
16  Nc1nc(NC(c2coc3ccccc23)C2CC2)ncc1C(F)(F)F (racemic)  Plant response rating, Ragweed      60
17  C[C@@H](Nc1ncc(C(F)(F)F)c(N)n1)c1cc2ccccc2n1C  Plant response rating, Ragweed      30
18  C[C@H](Nc1nc(N)c(C(F)(F)F)c(C(F)(F)F)n1)c1cc2ccccc2o1  Plant response rating, Ragweed       0
19  CC[C@@H](Nc1ncc(C(F)(F)F)c(N)n1)c1coc2ccccc12  Plant response rating, Ragweed      90
20  Cc1ccc2c(C(C)Nc3ncc(C(F)(F)F)c(N)n3)coc2c1 (centres unmarked)  Plant response rating, Ragweed      50
21  CC[C@H](Nc1ncc(C(F)(F)F)c(N)n1)c1cc2ccc(F)cc2s1  Plant response rating, Ragweed       0
22  C[C@@H](Nc1nc(N)c(C(F)(F)F)c(C(F)(F)F)n1)C1Cc2ccccc2C1  Plant response rating, Ragweed       0
23  C[C@@H](Nc1nc(N)c(C(F)(F)F)c(C(F)(F)F)n1)c1cc2ccccc2o1  Plant response rating, Ragweed       0
24  CC(Nc1ncc(C(F)(F)F)c(N)n1)c1cc2ccc(Cl)cc2s1 (racemic)  Plant response rating, Ragweed       0
25  Nc1nc(N[C@@H](c2cc3ccccc3s2)C2CC2)ncc1C(F)(F)F  Plant response rating, Ragweed      40
26  CC[C@H](Nc1ncc(C(F)(F)F)c(N)n1)c1coc2ccccc12  Plant response rating, Ragweed       0
27  Cc1nc(NC(C)c2cc3ccccc3s2)nc(N)c1C(F)(F)F (centres unmarked)  Plant response rating, Ragweed      70
28  CC(Nc1ncc([N+](=O)[O-])c(N)n1)c1cc2ccccc2s1 (centres unmarked)  Plant response rating, Ragweed      20
29  CC(Nc1ncc(C(F)(F)F)c(N)n1)c1cc2c(Cl)cccc2o1 (centres unmarked)  Plant response rating, Ragweed      60
30  C[C@H](Nc1ncc(C(F)(F)F)c(N)n1)c1cc2ccccc2n1C  Plant response rating, Ragweed       0
31  Nc1nc(NC(c2cc3ccccc3o2)C2CC2)ncc1C(F)(F)F (centres unmarked) [Compound 89]  Plant response rating, Ragweed       0
32  Nc1nc(NC(c2cc3ccccc3s2)C2CC2)ncc1C(F)(F)F (racemic)  Plant response rating, Ragweed      50
33  C[C@H](Nc1ncc(C(F)(F)F)c(N)n1)c1cc2cccc(F)c2o1  Plant response rating, Ragweed       0
34  C[C@H](Nc1nc(N)c(C(F)(F)F)c(C(F)(F)F)n1)c1cc2ccccc2s1  Plant response rating, Ragweed      20
35  C[C@@H](Nc1ncc(C(F)(F)F)c(N)n1)c1cc2c(F)ccc(F)c2s1  Plant response rating, Ragweed      80

---

system: barnyardgrass (Echinochloa crus-galli); assay: Test A postemergence, barnyardgrass; type: in vivo; conditions: 500 g ai/ha, 0 to 100 scale, 0 no effect, 100 complete control
Plant response rating, Barnyardgrass vs 20: less than gives yes (1); not less than gives no (0).

> print(dat)
                                    molecule  label.value
 1  C[C@H](Nc1nc(N)c(C(F)(F)F)c(C(F)(F)F)n1)C1Cc2ccccc2C1      yes (1)
 2  CC[C@@H](Nc1ncc(C(F)(F)F)c(N)n1)c1coc2ccccc12       no (0)
 3  Nc1nc(N[C@@H](c2cc3ccccc3s2)C2CC2)ncc1C(F)(F)F       no (0)
 4  CC(Nc1nc(N)c(C(F)(F)F)c(C(F)(F)F)n1)c1cc2ccccc2o1 (racemic)       no (0)
 5  CC(=O)c1cnc(NC(C)c2cc3ccccc3s2)nc1N (stereo not drawn)       no (0)
 6  Nc1nc(N[C@@H](c2coc3ccccc23)C2CC2)ncc1C(F)(F)F       no (0)
 7  Cc1cccc2oc(C(C)Nc3ncc(C(F)(F)F)c(N)n3)cc12 (stereo not drawn)       no (0)
 8  C[C@@H](Nc1nc(N)c(C(F)(F)F)c(C(F)(F)F)n1)C1Cc2ccccc2C1      yes (1)
 9  Nc1nc(NC(c2cc3ccccc3o2)C2CC2)ncc1C(F)(F)F (stereo not drawn) [Compound 88]       no (0)
10  Nc1nc(NC(c2cc3ccccc3s2)C2CC2)ncc1C(F)(F)F (racemic)       no (0)
11  Nc1nc(NC(c2cc3ccccc3o2)C2CC2)ncc1C(F)(F)F (stereo not drawn) [Compound 89]      yes (1)
12  CC(Nc1ncc(C(F)(F)F)c(N)n1)c1coc2cccc(F)c12 (racemic)       no (0)
13  C[C@H](Nc1ncc(C(F)(F)F)c(N)n1)c1cc2ccccc2n1C      yes (1)
14  C[C@H](Nc1ncc(C(F)(F)F)c(N)n1)c1cc2c(F)cccc2o1      yes (1)
15  CC(Nc1ncc(C(F)(F)F)c(N)n1)c1coc2cc(Cl)ccc12 (racemic)      yes (1)
16  C[C@H](Nc1ncc(C(F)(F)F)c(N)n1)c1cc2cccc(F)c2o1      yes (1)
17  Nc1nc(NC(c2coc3ccccc23)C2CC2)ncc1C(F)(F)F (racemic)       no (0)
